subject.of.test: His-GST-PARP7 (Homo sapiens (Human))
Sequence (Q7Z3E1 whole entry): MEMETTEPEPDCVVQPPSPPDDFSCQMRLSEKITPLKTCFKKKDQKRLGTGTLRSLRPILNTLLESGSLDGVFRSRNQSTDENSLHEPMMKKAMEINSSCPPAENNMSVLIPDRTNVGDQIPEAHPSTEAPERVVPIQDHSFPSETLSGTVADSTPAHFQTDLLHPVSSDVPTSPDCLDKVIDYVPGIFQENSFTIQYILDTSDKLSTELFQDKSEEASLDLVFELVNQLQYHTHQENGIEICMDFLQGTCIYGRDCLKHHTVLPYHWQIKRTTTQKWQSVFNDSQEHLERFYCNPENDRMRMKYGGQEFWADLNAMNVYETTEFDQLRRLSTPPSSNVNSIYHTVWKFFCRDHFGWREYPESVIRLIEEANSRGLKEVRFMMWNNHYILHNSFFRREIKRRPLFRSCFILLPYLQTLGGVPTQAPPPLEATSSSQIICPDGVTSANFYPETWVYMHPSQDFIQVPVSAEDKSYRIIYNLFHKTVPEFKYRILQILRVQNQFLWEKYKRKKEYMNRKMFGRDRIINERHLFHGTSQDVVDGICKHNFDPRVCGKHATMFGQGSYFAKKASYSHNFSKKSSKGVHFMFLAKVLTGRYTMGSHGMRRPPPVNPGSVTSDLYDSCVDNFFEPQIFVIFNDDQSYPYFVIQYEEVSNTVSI
test.protocol: PARP7 biochemical assay
test.parameters: read-out: PARP7 IC50
pIC50: −log10 of the molar value.
experimental.readout: pIC50

molecule	experimental.readout	reported.value
CC#Cc1ccc2c(=O)[nH]nc(C(C)CCCC(=O)N3CCN(c4ncc(C(F)(F)F)cn4)CC3)c2c1 (stereo not shown)	pIC50	> 7.30
COc1ccnc(N2CCN(C(=O)c3cc(Cc4n[nH]c(=O)c5ccc(OC6CCC6)cc45)ccc3F)CC2)c1	pIC50	> 7.30
CC#Cc1ccc2c(=O)[nH]nc(Cc3ccc(F)c(C(=O)N4CCN(c5ccc(C#N)cn5)CC4)c3)c2c1OC	pIC50	> 7.30
CC#Cc1ccc2c(=O)[nH]nc(Cc3cc(F)c(F)c(C(=O)N4CCN(c5ccc(C#N)cn5)CC4)c3)c2c1	pIC50	> 7.30
O=C(c1cc(Cc2n[nH]c(=O)c3ccc(OC4CCC4)cc23)ccc1F)N1CCN(c2ncc(C3CC3)cn2)CC1	pIC50	> 7.30
O=C(c1cc(Cc2n[nH]c(=O)c3ccc(OC4CCC4)cc23)ccc1F)N1CCCN(C(=O)C2CC2)CC1	pIC50	> 7.30
O=C(NC1CN(C(=O)C2CC2)C1)c1cc(Cc2n[nH]c(=O)c3ccc(OC4CCC4)cc23)ccc1F	pIC50	6.30 to 7.00
CC(F)(F)c1cnc(N2CCN(C(=O)c3cc(Cc4n[nH]c(=O)c5ccc(OC6CCC6)cc45)ccc3F)CC2)nc1	pIC50	> 7.30
N#Cc1ccc(N2CCC3C2CCN3C(=O)c2cc(Cc3n[nH]c(=O)c4ccc(OC5CCC5)cc34)ccc2F)nc1 (stereo not shown)	pIC50	6.30 to 7.00
N#Cc1ccnc(NC2CN(C(=O)c3cc(Cc4n[nH]c(=O)c5ccc(OC6CCC6)cc45)ccc3F)C2)c1	pIC50	6.30 to 7.00
N#Cc1ccc(N2CCN(C(=O)c3cc(Cc4n[nH]c(=O)c5ccc(OC6CC(F)(F)C6)cc45)ccc3F)CC2)nc1	pIC50	> 7.30
O=C(c1cc(Cc2n[nH]c(=O)c3ccc(OC4CCC4)cc23)ccc1F)N1CCC2C1CCN2c1ncc(C(F)(F)F)cn1 (stereo not shown)	pIC50	7.00 to 7.30
CN(c1cc(C#N)ccn1)C1CN(C(=O)c2cc(Cc3n[nH]c(=O)c4ccc(OC5COC5)cc34)ccc2F)C1	pIC50	< 5.70
O=C(c1cc(Cl)cc(Cc2n[nH]c(=O)c3ccc(OC4CCC4)cc23)c1)N1CCN(c2ncc(C(F)(F)F)cn2)CC1	pIC50	> 7.30
CN(c1cc(C#N)ccn1)C1CN(S(=O)(=O)c2cc(Cc3n[nH]c(=O)c4ccc(OC5CCC5)cc34)ccc2F)C1	pIC50	5.70 to 6.30
CC#Cc1ccc2c(=O)[nH]nc(Cc3ccc(F)c(C(=O)N4CCN(c5ccc(C#N)cn5)CC4C)c3)c2c1 (stereo not shown)	pIC50	> 7.30
CC#Cc1ccc2c(=O)[nH]nc(Cc3ccc(F)c(C(=O)N4CC(N(C)c5cc(C#N)ccn5)C4)c3)c2c1	pIC50	< 5.70
CC(CC(=O)N1CCN(c2ccc(C#N)cn2)CC1)NCc1n[nH]c(=O)c2ccc(OC3CC3)cc12 (stereo not shown)	pIC50	> 7.30
N#Cc1ccc(NC2CN(C(=O)c3cc(Cc4n[nH]c(=O)c5ccc(OC6CCC6)cc45)ccc3F)C2)nc1	pIC50	7.00 to 7.30
N#Cc1ccc(N2CCN(c3noc4ccc(Cc5n[nH]c(=O)c6ccc(OC7CCC7)cc56)cc34)CC2)nc1	pIC50	6.30 to 7.00
O=C(c1cc(Cc2n[nH]c(=O)c3ccc(OC4CCC4)cc23)ccc1F)N1CCN(c2ccc(CO)cn2)CC1	pIC50	> 7.30
CC#Cc1cc(C(F)(F)F)c2c(=O)[nH]nc(Cc3ccc(F)c(C(=O)N4CCN(c5ccc(C#N)cn5)CC4)c3)c2c1	pIC50	> 7.30
N#Cc1ccc(N2CCN(C(=O)c3cc(Cc4n[nH]c(=O)c5ccc(Oc6ccc7ccccc7c6)cc45)ccc3F)CC2)nc1	pIC50	7.00 to 7.30
O=C(c1cc(Cc2n[nH]c(=O)c3ccc(OC4CCC4)cc23)ccc1F)N1CCn2c(CO)nnc2C1	pIC50	> 7.30
CC#Cc1cc(Cl)c2c(=O)[nH]nc(Cc3ccc(F)c(C(=O)N4CCN(c5ccc(C#N)cn5)CC4)c3)c2c1	pIC50	6.30 to 7.00
CC#Cc1ccc2c(=O)[nH]nc(Cc3ccc(F)c(C(=O)N4CCN(c5ncc(C(F)(F)F)cn5)CC4)c3)c2c1	pIC50	6.30 to 7.00
N#Cc1ccc(N2CC3CN(C(=O)c4cc(Cc5n[nH]c(=O)c6ccc(OC7CCC7)cc56)ccc4F)CC3C2)nc1 (stereo not shown)	pIC50	6.30 to 7.00
O=C(NC1CN(c2ncc(C(F)(F)F)cn2)C1)c1cc(Cc2n[nH]c(=O)c3ccc(OC4CCC4)cc23)ccc1F	pIC50	< 5.70

* * *

Tested on: HARA (human lung squamous cell carcinoma) cells
test.protocol: Cell proliferation assay (CellTiter-Glo), HARA
Assay type: cell-based
test.parameters: Homo sapiens, 144 h; 6 days, CellTiter-Glo; read-out: HARA GI50
Reported GI50 values are given for each entry in this list.
experimental.readout: GI50

smiles.representation	subject.of.test	experimental.readout	reported.value
Cc1nc(N2CCN(C(=O)c3cc(Cc4n[nH]c(=O)c5ccc(OC6CCC6)cc45)ccc3F)CC2)ccc1C#N	HARA (human lung squamous cell carcinoma) cells	GI50	> 5 µM
N#Cc1ccc(-c2nnc3n2CCN(C(=O)c2cc(Cc4n[nH]c(=O)c5ccc(OC6CCC6)cc45)ccc2F)C3)nc1	HARA (human lung squamous cell carcinoma) cells	GI50	1 to 5 µM
N#Cc1cnc(N2CCN(C(=O)c3cc(Cc4n[nH]c(=O)c5ccc(OC6CCC6)cc45)ccc3F)CC2)nc1	HARA (human lung squamous cell carcinoma) cells	GI50	1 to 5 µM
O=C(c1cc(Cc2n[nH]c(=O)c3ccc(OC4CCC4)cc23)ccc1F)N1CCN(c2cnc(C(F)(F)F)cn2)CC1	HARA (human lung squamous cell carcinoma) cells	GI50	1 to 5 µM

* * *

Reported GI50 values are given for each entry in this list.
Tested on: HARA (human lung squamous cell carcinoma) cells
test.protocol: Cell proliferation assay (CellTiter-Glo), HARA
Format: cell-based
test.parameters: Homo sapiens, 144 h; 6 days, CellTiter-Glo; read-out: HARA GI50
experimental.readout: GI50

smiles.representation	subject.of.test	experimental.readout	reported.value
N#Cc1ccc(N2CCCC23CN(C(=O)c2cc(Cc4n[nH]c(=O)c5ccc(OC6CCC6)cc45)ccc2F)C3)nc1	HARA (human lung squamous cell carcinoma) cells	GI50	> 5000 nM
COc1cc(C#N)cnc1N1CCN(C(=O)c2cc(Cc3n[nH]c(=O)c4ccc(OC5CCC5)cc34)ccc2F)CC1	HARA (human lung squamous cell carcinoma) cells	GI50	1000 to 5000 nM
COc1cc2c(Cc3cccc(C(=O)N4CCN(c5ccc(C#N)cn5)CC4)c3)n[nH]c(=O)c2cc1F	HARA (human lung squamous cell carcinoma) cells	GI50	100 to 1000 nM
O=C(c1cc(Cc2n[nH]c(=O)c3ccc(OC4CCC4)cc23)ccc1F)N1CCN(c2ncc(C(F)(F)F)cn2)CC(F)(F)C1	HARA (human lung squamous cell carcinoma) cells	GI50	> 5000 nM

* * *

Reported GI50 values are given for each entry in this list.
System: NCI-H1373 (human lung adenocarcinoma) cells
test.protocol: Cell proliferation assay (CellTiter-Glo), NCI-H1373
Type: cell-based
test.parameters: Homo sapiens, NCI-H1373, 144 h; 6 days, CellTiter-Glo; read-out: NCI-H1373 GI50
experimental.readout: GI50

smiles.representation	experimental.readout	reported.value
N#Cc1ccc(N2CCN(C(=O)c3cccc(Cc4n[nH]c(=O)c5c(F)c(F)ccc45)c3)CC2)nc1	GI50	< 100 nM
CC#Cc1ccc2c(=O)[nH]nc(Cc3cc(F)c(F)c(C(=O)N4CCN(c5ccc(C#N)cn5)CC4)c3)c2c1	GI50	100 to 1000 nM
Cc1cc(C#N)cnc1N1CCN(C(=O)c2cc(Cc3n[nH]c(=O)c4ccc(OC5CCC5)cc34)ccc2F)CC1	GI50	100 to 1000 nM
N#Cc1ccc(N2CCN(C(=O)c3cc(Br)cc(Cc4n[nH]c(=O)c5ccc(OC6CCC6)cc45)c3)CC2)nc1	GI50	100 to 1000 nM
O=C(c1cc(Cc2n[nH]c(=O)c3ccc(OC4CCC4)cc23)ccc1F)N1CCCN(c2ncc(C(F)(F)F)cn2)CC1	GI50	100 to 1000 nM
N#Cc1ccc(N2CCN(C(=O)c3cc(Cc4n[nH]c(=O)c5ccc(NCCC(F)(F)F)cc45)ccc3F)CC2)nc1	GI50	1000 to 5000 nM
CC#Cc1ccc2c(=O)[nH]nc(Cc3ccc(F)c(C(=O)N4C[C@H]5C[C@@H]4CN5c4ccc(C#N)cn4)c3)c2c1	GI50	1000 to 5000 nM
N#Cc1ccc(N2CCN(C(=O)c3cc(Cc4n[nH]c(=O)c5ccc(N6CC7(CC(O)C7)C6)cc45)ccc3F)CC2)nc1	GI50	> 5000 nM
N#Cc1ccc(-c2nnc3n2CCN(C(=O)c2cc(Cc4n[nH]c(=O)c5ccc(OC6CCC6)cc45)ccc2F)C3)nc1	GI50	100 to 1000 nM
N#Cc1ccc(N2CCN(C(=O)c3cc(Cc4n[nH]c(=O)c5ccc(S(=O)(=O)C6CCC6)cc45)ccc3F)CC2)nc1	GI50	> 5000 nM
O=C(c1cc(Cc2n[nH]c(=O)c3ccc(OC4CCC4)cc23)ccc1F)N1CCN(c2ccc(CO)cn2)CC1	GI50	100 to 1000 nM
O=C(c1cc(Cc2n[nH]c(=O)c3ccc(OC4CCC4)cc23)ccc1Cl)N1CCN(c2ncc(C(F)(F)F)cn2)CC1	GI50	< 100 nM
N#Cc1ccc(N2CCN(C(=O)c3cc(Cc4n[nH]c(=O)c5ccc(NCC6CC6)cc45)ccc3F)CC2)nc1	GI50	100 to 1000 nM
N#Cc1ccc(N2CCN(c3noc4ccc(Cc5n[nH]c(=O)c6ccc(OC7CCC7)cc56)cc34)CC2)nc1	GI50	1000 to 5000 nM

Numbers sourced from patent US20260055079A1.
